- TEST_DETAILS: Antiproliferative activity against human ARPE19 assessed as reduction in cell number incubated for 44 hrs by alamar blue based fluorescence assay
- CONDITION: ARPE-19 cells
ATTRIBUTE_MEASURED: GI50 at 44 h

Example entries and their recorded answers appear below.
# input # query: GI50 at 44 h of entry COc1c(O)cc2c(c1O)C(=O)/C(=C/c1ccc(O)c(O)c1)CO2
# output > 100 µM

# input # query: GI50 at 44 h of entry COc1cc(OC)c2c(c1)OC/C(=C\c1ccc(SC)cc1)C2=O
# output 48 µM

# input # query: GI50 at 44 h of entry COc1ccc(/C=C2\COc3cc(OC)c(OC)c(OC)c3C2=O)cc1O
# output 1.3 µM

# input # query: GI50 at 44 h of entry COc1ccc(/C=C2\COc3c(OC)c(O)cc(O)c3C2=O)cc1
# output > 100 µM

# input # query: GI50 at 44 h of entry COc1ccc2c(c1OC)OC/C(=C\c1ccc(SC)cc1)C2=O
# output > 100 µM

Lab note: next compound to report on.
# input # query: GI50 at 44 h of entry COc1ccc(C[C@@H]2COc3c(OC)c(O)cc(O)c3C2=O)cc1
# output > 100 µM

###

- TEST_DETAILS: Cytotoxicity against human Y79 cells assessed as reduction in cell number incubated for 44 hrs by alamar blue based fluorescence assay
Each entry below carries its reported GI50 at 44 h.

# input # query: GI50 at 44 h of entry COc1ccc(C[C@@H]2COc3c(OC)c(O)cc(O)c3C2=O)cc1
# output > 100 µM

***
# input # query: GI50 at 44 h of entry COc1cc(O)cc2c1C(=O)[C@H](Cc1ccc(O)c(O)c1)CO2
# output 25 µM

# input # query: GI50 at 44 h of entry COc1ccc(/C=C2\COc3cc(OC)c(OC)c(OC)c3C2=O)cc1O
# output 23 µM

# input # query: GI50 at 44 h of entry COc1cc(O)cc(OC)c1C(=O)/C=C/c1ccc(O)cc1
# output > 100 µM

# input # query: GI50 at 44 h of entry COc1ccc(C[C@@H]2COc3cc(O)cc(O)c3C2=O)cc1
# output > 100 µM

# input # query: GI50 at 44 h of entry COc1cc2c(cc1O)C[C@]21COc2cc(OC(C)=O)cc(OC(C)=O)c2C1=O
# output > 100 µM

###

- TEST_DETAILS: Antiproliferative activity against human ARPE19 assessed as reduction in cell number incubated for 44 hrs by alamar blue based fluorescence assay
- CONDITION: ARPE-19 cells
Each entry below carries its reported GI50 at 44 h.

Example entries and their recorded answers appear below.
# input # query: GI50 at 44 h of entry COc1ccc(/C=C2\COc3cc(OC)c(OC)c(O)c3C2=O)cc1O
# output 4.8 µM

# input # query: GI50 at 44 h of entry CCOc1ccc(C(=O)/C=C/c2ccc(OC)c(OC)c2)c(O)c1C
# output > 100 µM

# input # query: GI50 at 44 h of entry COc1ccc(CC2COc3cc(OC)c(OC)c(OC)c3C2)cc1O (racemic)
# output 0.00034 µM

# input # query: GI50 at 44 h of entry COc1ccc(CC2COc3cc(OC)c(OC)c(OC)c3C2=O)cc1O (racemic)
# output > 100 µM

# input # query: GI50 at 44 h of entry COc1ccc(C[C@]2(O)COc3cc(OC)cc(O)c3C2=O)cc1
# output > 100 µM

# input # query: GI50 at 44 h of entry COc1ccc(C[C@]2(O)COc3cc(O)cc(O)c3C2=O)cc1
# output > 100 µM

# input # query: GI50 at 44 h of entry COc1c(O)cc(O)c2c1OC[C@@H](Cc1ccc(O)cc1)C2=O
# output > 100 µM

# input # query: GI50 at 44 h of entry COc1ccc(C[C@@H]2COc3cc(OC)c(OC)c(OC)c3C2=O)cc1O
# output > 100 µM

***
# input # query: GI50 at 44 h of entry COc1cc2c(c(OC)c1OC)C(=O)/C(=C/c1ccc(Cl)c(O)c1)CO2
# output 0.73 µM

# input # query: GI50 at 44 h of entry COc1c(O)c(OC)c2c(c1O)OC[C@@H](Cc1ccc(O)cc1)C2=O
# output > 100 µM

# input # query: GI50 at 44 h of entry O=C1/C(=C/c2ccc(O)c(O)c2)COc2cc(O)cc(O)c21
# output > 100 µM

# input # query: GI50 at 44 h of entry O=C1/C(=C/c2ccc(O)cc2)COc2cc(O)cc(O)c21
# output > 100 µM

# input # query: GI50 at 44 h of entry COc1c(O)cc2c(c1O)C(=O)[C@H](Cc1ccc(O)c(O)c1)CO2
# output > 100 µM

###

- TEST_DETAILS: Cytotoxicity against human 92-1 cells assessed as reduction in cell number incubated for 44 hrs by alamar blue based fluorescence assay
Each entry below carries its reported GI50 at 44 h.

Example entries and their recorded answers appear below.
# input # query: GI50 at 44 h of entry COc1c(O)c(OC)c2c(c1O)OC[C@@H](Cc1ccc(O)cc1)C2=O
# output > 100 µM

# input # query: GI50 at 44 h of entry COc1cc(OC)c2c(c1)OC/C(=C\c1ccc(SC)cc1)C2=O
# output > 100 µM

# input # query: GI50 at 44 h of entry COc1ccc(/C=C2\COc3c(OC)c(O)cc(O)c3C2=O)cc1
# output > 100 µM

***
# input # query: GI50 at 44 h of entry COc1ccc(C[C@]2(O)COc3cc(O)cc(O)c3C2=O)cc1
# output > 100 µM

# input # query: GI50 at 44 h of entry COc1ccc(/C=C2\COc3cc(OC(C)=O)cc(O)c3C2=O)cc1O
# output 67 µM

# input # query: GI50 at 44 h of entry COc1c(O)cc(O)c2c1OC[C@@H](Cc1ccc(O)cc1)C2=O
# output > 100 µM

###

Each entry below carries its reported GI50.
- TEST_DETAILS: Antiproliferative activity against HREC assessed as reduction in cell number incubated for 44 hrs by alamar blue based fluorescence assay
- Assay type: functional
- CONDITION: Homo sapiens
Number only, in µM; omit the unit.

# input # query: GI50 of entry COc1ccc(/C=C2\COc3cc(OC(C)=O)c(O)c(O)c3C2=O)cc1OC(C)=O
# output 16

***
# input # query: GI50 of entry COc1ccc(/C=C2\COc3cc(OC(C)=O)cc(O)c3C2=O)cc1O
# output 18

# input # query: GI50 of entry COc1ccc(C[C@]2(O)COc3cc(O)cc(O)c3C2=O)cc1
# output 74

# input # query: GI50 of entry CCOc1ccc(C(=O)/C=C/c2ccc(OC)c(OC)c2)c(O)c1C
# output 3.9

# input # query: GI50 of entry COc1cc(OC(C)=O)cc2c1C(=O)/C(=C/c1ccc(OC(C)=O)cc1)CO2
# output 96

###

- TEST_DETAILS: Cytotoxicity against human 92-1 cells assessed as reduction in cell number incubated for 44 hrs by alamar blue based fluorescence assay
ATTRIBUTE_MEASURED: GI50 at 44 h

Example entries and their recorded answers appear below.
# input # query: GI50 at 44 h of entry COc1ccc(CC2COc3cc(OC)c(OC)c(OC)c3C2)cc1O (racemic)
# output 52 µM

# input # query: GI50 at 44 h of entry COc1c(O)cc2c(c1O)C(=O)[C@H](Cc1ccc(O)c(O)c1)CO2
# output > 100 µM

# input # query: GI50 at 44 h of entry COc1c(O)cc2c(c1O)C(=O)[C@H](Cc1ccc(O)cc1)CO2
# output > 100 µM

***
# input # query: GI50 at 44 h of entry COc1cc2c(cc1O)C[C@]21COc2cc(O)cc(O)c2C1=O
# output > 100 µM

# input # query: GI50 at 44 h of entry COc1cc(O)c2c(c1)OC[C@]1(Cc3c1cc(OC)c(OC)c3O)C2=O
# output > 100 µM

The origin of these recorded values is ChEMBL document CHEMBL4316633.
